Recorded values, source ChEMBL document CHEMBL5033996.

- System: Ramos
- EXPERIMENT: Antiproliferative activity against human Ramos cells assessed as inhibition of cell proliferation measured after 72 hrs by MTT assay
- Assay type: functional, cell-based
Measured IC50, listed per entry for reference.
PROPERTY_LABEL: IC50 (nM)

>>> observed_result("O=C(Cc1ccc(-c2ccc(OCCCCN3CC4CCC(C3)O4)cc2)cn1)NCc1ccccc1")
17.3
>>> observed_result("CC(C)(C)OC(=O)N1CCN(CCOc2ccc(-c3ccc(CC(=O)NCc4ccccc4)nc3)cc2)CC1")
15.9
>>> observed_result("O=C(Cc1ccc(-c2ccc(OCCN3CC4CCCCC4C3)cc2)cn1)NCc1ccccc1 (stereo not given)")
19.7
>>> observed_result("CCN1CCN(CCOc2ccc(-c3ccc(CC(=O)NCc4ccccc4)nc3)cc2)CC1")
36.3
>>> observed_result("O=C(Cc1ccc(-c2ccc(OCCN3CCC4(CC3)OCCO4)cc2)cn1)NCc1ccccc1")
23.8
>>> observed_result("O=C(Cc1ccc(-c2ccc(OCCNC3CC3)cc2)cn1)NCc1ccccc1")
98.1
>>> observed_result("O=C(Cc1ccc(-c2ccc(OCCN3CCN(S(=O)(=O)C4CC4)CC3)cc2)cn1)NCc1ccccc1")
4.1
>>> observed_result("O=C(Cc1ccc(-c2ccc(OCCN3CCN(C(=O)[C@@H]4C[C@@H]4F)CC3)cc2)cn1)NCc1ccccc1")
1.6
>>> observed_result("O=C(Cc1ccc(-c2ccc(OCCN3CCOCC3)cc2)cn1)NCc1ccccc1 [TIRBANIBULIN]")
15.7
>>> observed_result("O=C(Cc1ccc(-c2ccc(OCCN3CCN(C(=O)C4CCC4)CC3)cc2)cn1)NCc1ccccc1")
1.5
>>> observed_result("O=C(Cc1ccc(-c2ccc(OCCN3CCN(C(=O)C4CC4)CC3)cc2)cn1)NCc1ccccc1")
1.3
>>> observed_result("O=C(Cc1ccc(-c2ccc(OCCCN3CCOCC3)cc2)cn1)NCc1ccccc1")
129
>>> observed_result("O=C(Cc1ccc(-c2ccc(OCCN3C[C@@H]4C[C@H]3CO4)cc2)cn1)NCc1ccccc1")
25.8
